- System: SJSA-1 cells
- assay: Cell lysis by peptidomimetic macrocycles (LDH release)
- Assay type: cell-based
- assay-setup: 6.25 uM, 1 h at 37C
Where a SMILES comes first, the peptide text is derived from it. Bridges are numbered along the chain shown (N, C = ends). [ ]: non-standard residue; d: D form. R8 = C=CCCCCCC[C@@](C)(N)C(=O)O; Cba = N[C@@H](CC1CCC1)C(=O)O; S5 = C=CCCC[C@](C)(N)C(=O)O; Nle = CCCC[C@H](N)C(=O)O
Property: 6.25 uM % Lysed cells (1 h LDH); scope: individual compounds

>  <compound>
CC[C@H](C)[C@H](NC(=O)[C@H](C)NC(=O)[C@H](CO)NC(=O)[C@]1(C)CCCC=CCCCCCC[C@@](C)(NC(=O)[C@H](Cc2ccccc2)NC(=O)[C@@H](NC(=O)[C@H](CC(C)C)NC(C)=O)[C@@H](C)O)C(=O)N[C@@H](C)C(=O)N[C@@H](Cc2ccc(O)cc2)C(=O)N[C@@H](Cc2c[nH]c3ccccc23)C(=O)N[C@@H](C)C(=O)N[C@@H](CCC(N)=O)C(=O)N[C@@H](CC(C)C)C(=O)N1)C(N)=O [compound 8] (Ac-LTF[R8]AYWAQL[S5]SAI-NH2; staple 4-11)

>  <reading-unit>
%

>  <6.25 uM % Lysed cells (1 h LDH)>
−1

$$$$
>  <compound>
CC(=O)N[C@@H](CC(C)C)C(=O)N[C@H](C(=O)N[C@@H](Cc1ccccc1)C(=O)N[C@]1(C)CCCCCCC=CCCC[C@@](C)(C(=O)N[C@@H](C)C(=O)N[C@@H](C)C(=O)N[C@@H](C)C(=O)N[C@@H](C)C(=O)N[C@@H](C)C(=O)N[C@@H](C)C(=O)N[C@H](C)C(N)=O)NC(=O)[C@H](CC(C)C)NC(=O)[C@H](CCC(N)=O)NC(=O)[C@H](C)NC(=O)[C@H](Cc2c[nH]c3ccccc23)NC(=O)[C@H](Cc2ccc(O)cc2)NC(=O)[C@H](C)NC1=O)[C@@H](C)O (single isomer, unassigned) [compound 317]

>  <reading-unit>
%

>  <6.25 uM % Lysed cells (1 h LDH)>
0

$$$$
>  <compound>
CC[C@H](C)[C@H](NC(C)=O)C(=O)N[C@H](C(=O)N[C@@H](Cc1ccccc1)C(=O)N[C@]1(C)CCCCCCC=CCCC[C@@](C)(C(=O)N[C@@H](C)C(=O)N[C@@H](C)C(=O)N[C@H](C(=O)N[C@H](C)C(N)=O)[C@@H](C)CC)NC(=O)[C@H](CC(C)C)NC(=O)[C@H](CCC(N)=O)NC(=O)[C@H](C(C)C)NC(=O)[C@H](Cc2c[nH]c3ccccc23)NC(=O)[C@H](Cc2ccc(O)cc2)NC(=O)[C@H](Cc2ccccc2)NC1=O)[C@@H](C)O [compound 177] (Ac-ITF[R8]FYWVQL[S5]AAI[dA]-NH2; staple 4-11)

>  <reading-unit>
%

>  <6.25 uM % Lysed cells (1 h LDH)>
−1

$$$$
>  <compound>
CC(=O)N[C@@H](CC(C)C)C(=O)N[C@H](C(=O)N[C@@H](Cc1ccccc1)C(=O)N[C@]1(C)CCCCCCC=CCCC[C@@](C)(C(=O)N[C@@H](C)C(=O)N[C@@H](Cc2c[nH]cn2)C(=O)N[C@@H](Cc2ccccc2)C(=O)N[C@@H](C)C(N)=O)NC(=O)[C@H](CC(C)C)NC(=O)[C@H](C)NC(=O)[C@H](C)NC(=O)[C@H](Cc2c[nH]c3ccccc23)NC(=O)[C@H](Cc2ccc(O)cc2)NC(=O)[C@H](C)NC1=O)[C@@H](C)O [compound 204] (Ac-LTF[R8]AYWAAL[S5]AHFA-NH2; staple 4-11)

>  <reading-unit>
%

>  <6.25 uM % Lysed cells (1 h LDH)>
4

$$$$
>  <compound>
CC(=O)N[C@@H](CC(C)C)C(=O)N[C@H](C(=O)N[C@@H](Cc1ccccc1)C(=O)N[C@]1(C)CCCCCCC=CCCC[C@@](C)(C(=O)N[C@@H](CO)C(=O)N[C@@H](C)C(=O)N[C@@H](C)C(=O)N[C@H](C)C(N)=O)NC(=O)[C@H](CC2CCC2)NC(=O)[C@H](CCC(N)=O)NC(=O)[C@H](C)NC(=O)[C@H](Cc2c[nH]c3ccccc23)NC(=O)[C@H](Cc2ccc(O)cc2)NC(=O)[C@H](CCC(=O)O)NC1=O)[C@@H](C)O (single isomer, unassigned)

>  <reading-unit>
%

>  <6.25 uM % Lysed cells (1 h LDH)>
0

$$$$
>  <compound>
CCCC[C@H](NC(=O)[C@H](C)NC(=O)[C@H](C)NC(=O)[C@]1(C)CCCC=CCCCCCC[C@@](C)(NC(=O)[C@H](Cc2ccccc2)NC(=O)[C@@H](NC(=O)[C@H](CCC(=O)O)NC(C)=O)[C@@H](C)O)C(=O)N[C@@H](C)C(=O)N[C@@H](Cc2ccc(O)cc2)C(=O)N[C@@H](Cc2c[nH]c3ccccc23)C(=O)N[C@@H](C)C(=O)N[C@@H](CCC(N)=O)C(=O)N[C@@H](CC2CCC2)C(=O)N1)C(=O)N[C@@H](C)C(N)=O [compound 237] (Ac-ETF[R8]AYWAQ[Cba][S5]AA[Nle]A-NH2; staple 4-11)

>  <reading-unit>
%

>  <6.25 uM % Lysed cells (1 h LDH)>
0

$$$$
>  <compound>
CC(=O)N[C@@H](CC(C)C)C(=O)N[C@H](C(=O)N[C@@H](Cc1ccccc1)C(=O)N[C@]1(C)CCCCCCC=CCCC[C@@](C)(C(=O)N[C@@H](CO)C(=O)N[C@H](C(=O)N[C@@H](C)C(N)=O)C(C)C)NC(=O)[C@H](CC(C)C)NC(=O)[C@H](CCC(N)=O)NC(=O)[C@H](C)NC(=O)[C@H](Cc2c[nH]c3ccccc23)NC(=O)[C@H](Cc2ccc(O)cc2)NC(=O)[C@H](C(C)C)NC1=O)[C@@H](C)O (single isomer, unassigned)

>  <reading-unit>
%

>  <6.25 uM % Lysed cells (1 h LDH)>
−2

$$$$
>  <compound>
CC[C@H](C)[C@H](NC(=O)[C@H](C)NC(=O)[C@H](C)NC(=O)[C@]1(C)CCCC=CCCCCCC[C@@](C)(NC(=O)[C@H](Cc2ccccc2)NC(=O)[C@@H](NC(=O)[C@H](CC(C)C)NC(C)=O)[C@@H](C)O)C(=O)N[C@@H](C)C(=O)N[C@@H](Cc2c[nH]cn2)C(=O)N[C@@H](Cc2c[nH]c3ccccc23)C(=O)N[C@@H](C)C(=O)N[C@@H](CCC(N)=O)C(=O)N[C@@H](CC(C)C)C(=O)N1)C(=O)N[C@H](C)C(N)=O [compound 170] (Ac-LTF[R8]AHWAQL[S5]AAI[dA]-NH2; staple 4-11)

>  <reading-unit>
%

>  <6.25 uM % Lysed cells (1 h LDH)>
2

$$$$
>  <compound>
CC(=O)N[C@@H](CC(C)C)C(=O)N[C@H](C(=O)N[C@@H](Cc1ccccc1)C(=O)N[C@]1(C)CCCCCCC=CCCC[C@@](C)(C(=O)N[C@@H](C)C(=O)N[C@@H](C)C(=O)N[C@@H](C)C(=O)N[C@H](C)C(N)=O)NC(=O)[C@H](CC(C)C)NC(=O)[C@H](CCC(N)=O)NC(=O)[C@H](C)NC(=O)[C@H](Cc2c[nH]c3ccccc23)NC(=O)[C@H](Cc2ccc(O)cc2)NC(=O)[C@H](C)NC1=O)[C@@H](C)O (single isomer, unassigned)

>  <reading-unit>
%

>  <6.25 uM % Lysed cells (1 h LDH)>
0.5

$$$$
